Conditions: in n-hexane, 283.2 K
Property Name: solubility (mole fraction)

{"columns": ["Structure As Smiles", "Result"],
 "data": [
  ["C=C1CCC[C@]2(C)C[C@]3(O)OC(=O)C(C)=C3C[C@@H]12", "2.44e-05"]
]}

###

Conditions: in ethanol, 318.2 K

{"columns": ["Structure As Smiles", "solubility (mole fraction)"],
 "data": [
  ["C=C1CCC[C@]2(C)C[C@]3(O)OC(=O)C(C)=C3C[C@@H]12", 0.0151]
]}

###

Details: in ethyl acetate, 288.2 K
Property Name: solubility (mole fraction)

{"columns": ["Structure As Smiles", "Measured Number"],
 "data": [
  ["C=C1CCC[C@]2(C)C[C@]3(O)OC(=O)C(C)=C3C[C@@H]12", 0.0228]
]}

###

Conditions: in ethyl acetate, 318.2 K

{"columns": ["Structure As Smiles", "solubility (mole fraction)"],
 "data": [
  ["C=C1CCC[C@]2(C)C[C@]3(O)OC(=O)C(C)=C3C[C@@H]12", 0.0282]
]}

###

Conditions: in ethyl acetate, 293.2 K
Property Name: solubility (mole fraction)

{"columns": ["Structure As Smiles", "Result"],
 "data": [
  ["C=C1CCC[C@]2(C)C[C@]3(O)OC(=O)C(C)=C3C[C@@H]12", 0.0236]
]}

###

Details: in ethanol, 288.2 K

{"columns": ["Structure As Smiles", "solubility (mole fraction)"],
 "data": [
  ["C=C1CCC[C@]2(C)C[C@]3(O)OC(=O)C(C)=C3C[C@@H]12", 0.00547]
]}

###

Settings: in ethanol, 283.2 K

{"columns": ["Structure As Smiles", "solubility (mole fraction)"],
 "data": [
  ["C=C1CCC[C@]2(C)C[C@]3(O)OC(=O)C(C)=C3C[C@@H]12", 0.00443]
]}

###

Conditions: in n-hexane, 323.2 K

{"columns": ["Structure As Smiles", "solubility (mole fraction)"],
 "data": [
  ["C=C1CCC[C@]2(C)C[C@]3(O)OC(=O)C(C)=C3C[C@@H]12", 0.000336]
]}

###

Conditions: in ethanol, 303.2 K
Property Name: solubility (mole fraction)

{"columns": ["Structure As Smiles", "Property Name", "Measured Number"],
 "data": [
  ["C=C1CCC[C@]2(C)C[C@]3(O)OC(=O)C(C)=C3C[C@@H]12", "solubility (mole fraction)", 0.00966]
]}

###

Details: in n-hexane, 288.2 K
Property Name: solubility (mole fraction)

{"columns": ["Structure As Smiles", "Measured Number"],
 "data": [
  ["C=C1CCC[C@]2(C)C[C@]3(O)OC(=O)C(C)=C3C[C@@H]12", "4.12e-05"]
]}

###

Settings: in ethyl acetate, 323.2 K

{"columns": ["Structure As Smiles", "solubility (mole fraction)"],
 "data": [
  ["C=C1CCC[C@]2(C)C[C@]3(O)OC(=O)C(C)=C3C[C@@H]12", 0.0293]
]}

###

Conditions: in ethyl acetate, 298.2 K

{"columns": ["Structure As Smiles", "solubility (mole fraction)"],
 "data": [
  ["C=C1CCC[C@]2(C)C[C@]3(O)OC(=O)C(C)=C3C[C@@H]12", 0.0242]
]}

###

Conditions: in ethanol, 323.2 K

{"columns": ["Structure As Smiles", "solubility (mole fraction)"],
 "data": [
  ["C=C1CCC[C@]2(C)C[C@]3(O)OC(=O)C(C)=C3C[C@@H]12", 0.0171]
]}

These measurements were taken from BigSolDB 2.1.
